# targetUnderTest: BaF3 cells expressing the target EGFR mutations (Homo sapiens, UniProt P00533, T790M/L858R, cells depend on it)
# Construct: IC50, BAF3 EGFR L858R-T790M PURO POOL; other: BAF3 EGFR L858R-T790M PURO POOL cells, MTT; IC50, BAF3 EGFR L858R-T790M PURO POOL; other: BAF3 EGFR L858R-T790M PURO POOL cells; MTT
# Sequence (P00533 whole entry T790M/L858R): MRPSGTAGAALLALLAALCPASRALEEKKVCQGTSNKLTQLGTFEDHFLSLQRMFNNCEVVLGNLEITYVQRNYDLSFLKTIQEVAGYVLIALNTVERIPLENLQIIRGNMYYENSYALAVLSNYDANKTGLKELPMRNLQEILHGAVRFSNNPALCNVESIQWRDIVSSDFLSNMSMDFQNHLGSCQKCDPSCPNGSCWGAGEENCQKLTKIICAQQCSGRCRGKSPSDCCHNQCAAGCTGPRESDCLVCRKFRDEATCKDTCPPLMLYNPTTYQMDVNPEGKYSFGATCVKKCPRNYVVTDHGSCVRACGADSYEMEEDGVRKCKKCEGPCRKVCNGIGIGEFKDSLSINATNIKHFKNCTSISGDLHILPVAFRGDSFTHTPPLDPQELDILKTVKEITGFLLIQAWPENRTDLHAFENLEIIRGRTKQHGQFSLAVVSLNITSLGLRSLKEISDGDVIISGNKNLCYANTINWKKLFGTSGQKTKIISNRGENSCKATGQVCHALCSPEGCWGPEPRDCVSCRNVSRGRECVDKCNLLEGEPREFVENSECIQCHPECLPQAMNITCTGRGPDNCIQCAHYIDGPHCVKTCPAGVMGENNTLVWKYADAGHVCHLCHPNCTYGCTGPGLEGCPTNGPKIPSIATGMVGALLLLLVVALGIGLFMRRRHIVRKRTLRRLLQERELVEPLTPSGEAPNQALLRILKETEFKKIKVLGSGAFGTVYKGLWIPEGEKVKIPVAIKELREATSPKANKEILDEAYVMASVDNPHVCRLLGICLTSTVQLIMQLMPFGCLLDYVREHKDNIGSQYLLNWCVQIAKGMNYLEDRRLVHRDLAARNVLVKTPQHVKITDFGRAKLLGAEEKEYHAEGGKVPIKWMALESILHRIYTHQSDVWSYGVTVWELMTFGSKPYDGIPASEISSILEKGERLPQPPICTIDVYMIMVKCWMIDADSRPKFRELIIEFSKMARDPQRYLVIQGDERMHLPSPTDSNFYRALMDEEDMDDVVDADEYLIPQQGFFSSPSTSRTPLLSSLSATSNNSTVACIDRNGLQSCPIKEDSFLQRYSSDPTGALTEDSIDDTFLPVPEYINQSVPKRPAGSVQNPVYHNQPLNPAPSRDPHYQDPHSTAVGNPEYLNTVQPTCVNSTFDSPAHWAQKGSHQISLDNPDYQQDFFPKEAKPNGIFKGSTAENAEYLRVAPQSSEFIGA
# experiment: Antiproliferative activity (MTT) against BaF3 cells expressing the target EGFR mutations
# Type: cell-based
# experimentalContext: BAF3 EGFR L858R-T790M PURO POOL cells, read-out: IC50, BAF3 EGFR L858R-T790M PURO POOL
metric: GI50

| compound | observedValue |
| --- | --- |
| C=CC(=O)Nc1cc(Nc2ncc(Cl)c(Nc3ccccc3P(C)(C)=O)n2)c(OC)cc1C#CCNC | < 50 nM |
| COc1ccc(NC(=O)/C=C\C(=O)N2CCN(C)CC2)cc1Nc1ncc(Cl)c(Nc2ccccc2P(C)(C)=O)n1 | ≥ 250 nM |
| C=CC(=O)Nc1cc(Nc2ncc(Cl)c(Nc3ccccc3P(C)(C)=O)n2)c(OC)cc1N1CCC(N2CCOCC2)CC1 | < 50 nM |
| COc1ccc(NS(=O)(=O)CCl)cc1Nc1ncc(Cl)c(Nc2ccccc2P(C)(C)=O)n1 | ≥ 250 nM |
| C=CC(=O)Nc1cc(Nc2ncc(Cl)c(Nc3ccccc3P(C)(C)=O)n2)c(OC)cc1C#CC(C)(C)N | < 50 nM |
| COc1ccc(NC(=O)CCl)cc1Nc1ncc(Cl)c(Nc2ccccc2P(C)(C)=O)n1 | < 50 nM |
| CC#CC(=O)Nc1cc(Nc2ncc(Cl)c(Nc3ccccc3P(C)(C)=O)n2)c(OC)cc1OCCN1CCCC1 | 101 to 250 nM |
| C=CC(=O)Nc1cc(Nc2ncc(Cl)c(Nc3ccccc3P(C)(C)=O)n2)c(OC)cc1N1CCC(N2CCCCC2)C1 (stereo not drawn) | < 50 nM |
| C=CC(=O)Nc1cc(Nc2ncc(Cl)c(Nc3ccccc3P(C)(C)=O)n2)c(CC)cc1C#CCN(C)C | < 50 nM |
| C=CC(=O)Nc1cc(Nc2ncc(Cl)c(Nc3ccccc3P(C)(C)=O)n2)c(OC)cc1C#CCN1CCCCCC1 | < 50 nM |
| COc1cc(P(C)(C)=O)ccc1Nc1ncc(Cl)c(Oc2cccc(NC(=O)C#CCN(C)C)c2)n1 | ≥ 250 nM |
| C=CC(=O)Nc1cc(Nc2ncc(Cl)c(Nc3ccccc3P(C)(C)=O)n2)c(OC)cc1C#CCCN(C)C | < 50 nM |
| Cc1ccc(NC(=O)CCl)cc1Nc1ncc(Cl)c(Nc2ccccc2P(C)(C)=O)n1 | < 50 nM |
| CNC(=O)/C=C/C(=O)Nc1ccc(OC)c(Nc2ncc(Cl)c(Nc3ccccc3P(C)(C)=O)n2)c1 | 101 to 250 nM |
| C=CC(=O)Nc1cc(Nc2ncc(Cl)c(Nc3ccccc3P(C)(C)=O)n2)c(OC)cc1OCc1cccnc1 | 101 to 250 nM |
| C=CC(=O)Nc1cc(Nc2ncc(Cl)c(Nc3ccccc3P(C)(C)=O)n2)c(OC)cc1OCCN1CCOCC1 | 101 to 250 nM |
| C=CC(=O)Nc1cc(Nc2ncc(Cl)c(Nc3ccccc3P(C)(C)=O)n2)c(OC)cc1C#CCN(C)CC | < 50 nM |
| COc1cc(F)c(NC(=O)C#CCN2CCCC2)cc1Nc1ncc(Cl)c(Nc2ccccc2P(C)(C)=O)n1 | < 50 nM |
